assay: yeast display, Sf9 membrane polyspecificity reagent, FACS + sequencing; frameworks hold sequencing errors
measurementLabel: polyreactivity (PSR sort gate)

{"sequenceContent": "QVQLVESGGGLVQAGGSLRLSCASSGRTFYRYAMGWYRQAPGKERELVASITRRGGSTYYADSVKGRFTISRDNAKNTVYLQMNSLKPEDTAVYYCAKHSWPLDGGDYWGQGTQVTVSS", "observedValue": "low polyreactivity"}
{"sequenceContent": "QVQLEESGGGLVQAGGSLRLSCAASGRIFSNNVMGWYRQAPGKERELVATISTDGRTNYADSVKGRFTISRDNAKNTVYLQMNSLKPEDTAVYYCAATGVTILLSSKSDYWGQGTQVTVSS", "observedValue": "low polyreactivity"}
{"sequenceContent": "QVQLVESGGGLVQAGGSLRLSCAASGITFPGNAMGWYRQAPGKERELVAVISSGTSTNYADSVKGRFTISRDNAKYTVYLQMNSLKPEDTAVYYCATSLYYYPYYYWGQGTQVTVSS", "observedValue": "low polyreactivity"}
{"sequenceContent": "QVQIVESGGGLVQAGGSLRLSCAASGSIFRGYAKGWYRQAPGKERELVAAITQRAGSTYYADSVKGRFTISRDNAKNTVYLQMNSLKPEDTAVYYCAADVFYVFLHRVWYNYWGQGTQVTVSS", "observedValue": "low polyreactivity"}

# context switch: different sequence, same polyreactivity (PSR sort gate)
Recorded polyreactivity (PSR sort gate) (sequence QVQLQESGGGLVQAGGSLRLSCAASGSIFQLHIMCWYRQAPGKERESVAAISYGTSTYYADSVKGRFTICRDNAKNTVYLQMNSPKTDDTAVYYCAALFLVSKHHHYWGEGTQVTVSS ): low polyreactivity

----------
assay: yeast display, Sf9 membrane polyspecificity reagent, FACS + sequencing; frameworks hold sequencing errors

{"sequenceContent": "QVQLVESGGGLVQAGGSLRLSCAASGTFAGNAMGCYRQSPGKERELVASITTGGRTYYADSVKGRFTISRDNAKNTVYLQMNSLKPEDTAVFYCSADLIRELEFDYWGQGTQVTVSS", "polyreactivity (PSR sort gate)": "low polyreactivity"}
{"sequenceContent": "QVQLVESGGCLVQAGGRLRLSCAASGYIFDRNAMGWYRQAPGTERELVAAITKRGGITYYADSVKGRFTISRDNAKFSGYLQMNSLKPEDTAVYYCNALARSSRYDYWGQGTQVTVSS", "polyreactivity (PSR sort gate)": "low polyreactivity"}

----------
test: yeast display, Sf9 membrane polyspecificity reagent, FACS + sequencing; frameworks hold sequencing errors
measurementLabel: polyreactivity (PSR sort gate)

{"sequenceContent": "QVQLVESGGGLVQAGGSLRLSCAASGSTFSYYAMGWYRQAPGKERDLVAAISTDGGSTYYADSVKGRFTISRDNAKNTVYLQMNSLKPEDTAVYYCAALVGYYQYVWDLTYTVVEYNYWGQGTQVNVSS", "observedValue": "low polyreactivity"}
{"sequenceContent": "QDQLVESVVGLVQAGGSLRLSCAASGRIFEDYAMGWYRQAPGKERELVARICSGDSTNYADSVKGRFTISRDNAKNTVYLQMNSLKPEDTAVYYCAAEGGVQEFDFCGQGTQVTVSS", "observedValue": "low polyreactivity"}

----------
assay: yeast display, Sf9 membrane polyspecificity reagent, FACS + sequencing; frameworks hold sequencing errors
measurementLabel: polyreactivity (PSR sort gate)

{"sequenceContent": "QVQLVESGGGLVQAGGSLRLSCAASGRTFVRYAMGWYRQAHGKERELVAAIDSSGGRTYYADSVKGRFTISRDNAKNTVYLQMNSLKPEDTAVYYCNARRLASYRGYSWGQGTQVTVSS", "observedValue": "high polyreactivity"}
{"sequenceContent": "QVQLVESGGGLVQAGGSLRLSCAAYGRTLRYYAMGWYRQAPGKERELVAAISSGGTTNYADSVKGRFTISRDNAKNTVYLQMNSLKPEDTAVYYCAARYRRFRFTQYDYWGQGTQVTVSS", "observedValue": "high polyreactivity"}
{"sequenceContent": "QVQLVESGGGLVQAGGSLRLSCAASGSIFHPYTMGWYRQAPGKERELVAAISWSGGNTNYADSVNGRFTISRDNAKNTVYLQMNSLKPDDTAVYYCNKATNLSGGYDSWGQGTQVTVSS", "observedValue": "low polyreactivity"}
{"sequenceContent": "QVQLVESGGGLVQAGGSLRLICAASGSTFGRNAMGWSRQAPGKERELVAAISSGGRTYYADSVKGRFTSSRDNAKHTVYVQLNSLKPEDSAVYYCARDDYGTLVKLYVRGFNYWGQGTQVTVSS", "observedValue": "low polyreactivity"}

# context switch: different sequence, same polyreactivity (PSR sort gate)
Recorded polyreactivity (PSR sort gate) (sequence QVQLVESGGGLVQAGGSLRLSCAASGRIFVGYAMGWYRQAPGKERELVAAISSRGGSTYYADSVKGRFTISRDNAKNTVYLQMNSLKPEDTAVYYCAKVRTYRYYDGGDYWGQGTQVTVSS ): high polyreactivity

----------
test: yeast display, Sf9 membrane polyspecificity reagent, FACS + sequencing; frameworks hold sequencing errors
measurementLabel: polyreactivity (PSR sort gate)

See these solved cases before continuing.
{"sequenceContent": "QDQLVESGGGLVQAGGSLRLSCAASGSISVANAMGWYRQAPGKERELVAAISWRSDSTYYADSVKGRFTISRDNAKNTVYLQMNSLKPEDTAVYYCAASQYPLIWYDYWGQGTQVTVSS", "polyreactivity (PSR sort gate)": "low polyreactivity"}
{"sequenceContent": "QVQLVESGGGLVQAGGSLRLSCAASGRIFYPYVMGWYRQAPGKERELVAAISASGGRTYYADSVKGRFTISRDNAKNTVYLQMNSLKPEDTAVYYCAAQGWRYYRTVVPMDYWGQGTQVTVSS", "polyreactivity (PSR sort gate)": "low polyreactivity"}
{"sequenceContent": "QVQIVESGGGLVQAGGSLRLSCAASGFIFRRNAMGWYRQAPGKERELVATIRASGGRTYYADSVKGRFTISRDNAKNTVYLQRNSLKPEDTAVYYCNAGKAPYLRYDYWGQGTEVTVSS", "polyreactivity (PSR sort gate)": "high polyreactivity"}
{"sequenceContent": "QVQLVESGGGLVQAGGSLRISCAASGFIFDPYAMGWYRQAPGKERELVASINTRGDRTSYADSVKGRFTISRDNAKNTVYLQMNSLKPEDTAVYYCNADAVDQVGPDDDYWGQGTQVTVSS", "polyreactivity (PSR sort gate)": "low polyreactivity"}
{"sequenceContent": "QVQLVESGGGLVQAGVSLRLSCAASGNTFKYYPMGWYRQAPGKEWELVAGITGTGGRTNYADSVKGRFTISRDNAKNTVYLQMTSLKPEDTAVYYFAADYWWYTGYDYWGQGTQVTVSS", "polyreactivity (PSR sort gate)": "high polyreactivity"}

Recorded polyreactivity (PSR sort gate) (sequence QVQLVESGGGLVQAGGSLRLSCAASGITFGRYAMGWYRQAPGKERELVAAISWSGGSTYYADSVKGRFTISRDNANNTVYLQMNRLKPEDTAVYYCNVVFRFNSFDYYYWGQGSQVTVSS ): high polyreactivity

Recorded polyreactivity (PSR sort gate) (sequence QVQLVESGGGLVQAGGSLRLSCAASGSIFYHYSMGWYRQAPGKERELVAAITRSGGSTYYADSVKGRFTISRDNAKNTVFLQMNSLNPEDTAVYYSAKDPDSYNFLTSNWYDYWGLGTQVTVSS ): low polyreactivity

Recorded polyreactivity (PSR sort gate) (sequence QVHLVESWGGLVQAGGSLRLSCSASGITFDEYTIGWYRQAPGKERELVAAIDSDGSTTYADSVKVRFTISRDNAKNTVYLQMNILKPEDTEVYYCNAEHGDFCWHYLLYDYDYWGQGTQVTVSS ): low polyreactivity

Recorded polyreactivity (PSR sort gate) (sequence QVQLVESGGGLVQAGGSLRLSCAASGRTISFYAMGWYRQAPGKERELVAAISRSGGSTYYADSVKGRFTISRDNAKNTVYLQMNSLKPEDTAVYYCAARDQYRWYKYDYWGQGTQVTVSS ): high polyreactivity

Recorded polyreactivity (PSR sort gate) (sequence QVQLVESGGALVQAGGSLRLSCAASGFIFHYYAMGWYRQAPGKERELVAAISKTGGSTYYADSVKGRFTISRDNAKNTVYLQMNSLKPEDTAVYYCAVARSAYYRGNHWGQGTQVTVSS ): high polyreactivity

Recorded polyreactivity (PSR sort gate) (sequence QVQLVESGGGLVQAGGSLRLSCAASGFIFSRYAMGWYRQAPGKERELGATINTNGGSTYYAYSVKGRFTISRDNAKNTVYLQMNSLKPEDTAVYYCNAKYQALQRSWGRYDYWGQGTQVTVSS ): low polyreactivity

----------
assay: yeast display, Sf9 membrane polyspecificity reagent, FACS + sequencing; frameworks hold sequencing errors
measurementLabel: polyreactivity (PSR sort gate)

{"sequenceContent": "QVQLVESGGGLVQAGGSLRLSCAASGRTFVYYAMGWYRQAPGKERELVAAITFSGGSTYYADSVKGRFTISRDNAKNTVYLQMNSLKPEDTAVYYCAAQYRYSYPLGDYWGQGTQVTVSS", "observedValue": "low polyreactivity"}
{"sequenceContent": "QVQLVESGGGLVQAGGSLRLSCAASGFTFTAYAMGWSRQAPGKERELVAAISSGGSTYYADSVKGRFTISRDNAKNTVYLQMNSLKPEDTAVYYCAAVGVYTVKREYWGQGTQVTVSS", "observedValue": "low polyreactivity"}
